# ASSAY TARGET: T1, human HER2 expressed on tumor cells (human, UniProt P04626 23-1255)
# T1 construct: whole, on cells; Cell line is named in each row's assay
# ASSAY NOTES: flow cytometry, RT-112 cells
# key: entry, value: EC50
Give just the number in µg/mL; leave the unit off.

Example entries and their recorded answers appear below.
[
  {
    "BINDER": "Hu2117-HK310 (Fc fusion, scFv-hIgG1 Fc; not shown: human IgG1 Fc) scFv: EVQLVESGGGLVQPGGSLRLSCAASGFTYSSYGMSWVRQAPGKGLEWVASISGGGNYAKYVDNVKGRFTISRDNSKNTLYLQMNSLRAEDTAVYYCARDYVGFFDVWGQGTLVTVSSGGGGSGGGGSGGGGSDIQMTQSPSSLSASVGDRVTITCRSSQSLVHSNRNTYLHWYQQKPGKAPKLLIYKVSNRFSGVPSRFSGSGSGTDFTLTISSLQPEDFATYFCSQSTHVPYTFGQGTKVEIK",
    "RECORDED ENDPOINT": "EC50",
    "VALUE": 0.157
  },
  {
    "BINDER": "Hu2117-HK309 (Fc fusion, scFv-hIgG1 Fc; not shown: human IgG1 Fc) scFv: EVQLVESGGGLVQPGGSLRLSCAASGFTYSSYGMSWVRQAPGKGLEWVASISGGGNYAKYVDKVKGRFTISRDNSKNTLYLQMNSLRAEDTAVYYCARDYVGFFDVWGQGTLVTVSSGGGGSGGGGSGGGGSDIQMTQSPSSLSASVGDRVTITCRSSQSLVHSNRNTYLHWYQQKPGKAPKLLIYKVSNRFSGVPSRFSGSGSGTDFTLTISSLQPEDFATYFCSQSTHVPYTFGQGTKVEIK",
    "RECORDED ENDPOINT": "EC50",
    "VALUE": 0.0956
  }
]

In the following, a different binder is considered.
// query Requested field: EC50. Item: Hu2117-HK203 (Fc fusion, scFv-hIgG1 Fc; not shown: human IgG1 Fc) scFv: EVQLVESGGGLVQPGGSLRLSCAASGFTYSSYGMSWVRQAPGKGLEWVASISGGGNYAKYVDSVKGRFTISRDNSKNTLYLQMNSLRAEDTAVYYCARDYVGFFDVWGQGTLVTVSSGGGGSGGGGSGGGGSDIQMTQSPSSLSASVGDRVTITCRSSQSLVHSNRNTYLHWYQQKPGKAPKLLIYKVSNRFSGVPSRFSGSGSGTDFTLTISSLQPEDFATYFCSQSTHVPYTFGQGTKVEIK
// result 0.144
